assayed.system: GlcNAc(a1-4)Gal(b1-4)GalNAc
assay.remarks: glycan array binding signal (z-score within array); higher = stronger binding
condition.notes: glycan notation: IUPAC condensed, linker removed
This is one part of a sample in which the strongest signals are shown more often than they occur.
Reported glycan array binding signal (z-score) is given for each of the following binders.

| binder | glycan array binding signal (z-score) |
| --- | --- |
| DrGRIFIN (Danio rerio), Q6DGJ1 (protein) MTLRFEASCPDGLCPGWSVILKGETPPEASKFEINFLCDRDDRVAFHFNPRFTESDIICNSYMANRWGQEERCNHFPLGVEEPFQIEIYSDNDHFHVYIDKAKVMQYKHRVEDLKTITKLQVVNDVKISSLEITKKLFY | -0.154 |
| Banana lectin (Musa acuminata) (protein) MNGAIKVGAWGGNGGSAFDMGPAYRIISVKIFSGDVVDAVDVTFTYYGKTETRHFGGSGGTPHEIVLQEGEYLVGMKGEFGNYHGVVVVGKLGFSTNKKSYGPFGNTGGTPFSLPIAAGKISGFFGRGGDFIDAIGVYLEP | -0.174 |
| Clec2 (Mus musculus), Q9JL99 (protein) MQDEDGYITLNIKPRKQALSSAEPASSWWRVMALVLLISSMGLVVGLVALGIMSVTQQKYLLAEKENLSATLQQLAKKFCQELIRQSEIKTKSTFEHKCSPCATKWRYHGDSCYGFFRRNLTWEESKQYCTEQNATLVKTASQSTLDYIAERITSVRWIGLSRQNSKKDWMWEDSSVLRKNGINLSGNTEENMNCAYLHNGKIHPASCKERHYLICERNAGMTRVDQLL | -0.598 |
| Tap1 (Sordaria macrospora), Q50IV4 (protein) MSHHHHHHHHYTLHLRLINDTSDTLTLVEQTSWWGKNTIWSQVRSTGVHVLSMAASGSSGMLRFQTSKGDFFAVAVGVHNYKRWCDVLVDTADEAPLTKLHPKYYDDKDAKYQALWAQASEFEAKSKSGKTVRIKFYQADGNVLRATVEYL | 0.868 |

The measurements presented in this section are drawn from the supplement of paper PMC8728848.
